- target.under.test: TAK1/TAB1 (Homo sapiens)
- Sequence (Q15750 whole entry, one chain of several, the tested form may be a part): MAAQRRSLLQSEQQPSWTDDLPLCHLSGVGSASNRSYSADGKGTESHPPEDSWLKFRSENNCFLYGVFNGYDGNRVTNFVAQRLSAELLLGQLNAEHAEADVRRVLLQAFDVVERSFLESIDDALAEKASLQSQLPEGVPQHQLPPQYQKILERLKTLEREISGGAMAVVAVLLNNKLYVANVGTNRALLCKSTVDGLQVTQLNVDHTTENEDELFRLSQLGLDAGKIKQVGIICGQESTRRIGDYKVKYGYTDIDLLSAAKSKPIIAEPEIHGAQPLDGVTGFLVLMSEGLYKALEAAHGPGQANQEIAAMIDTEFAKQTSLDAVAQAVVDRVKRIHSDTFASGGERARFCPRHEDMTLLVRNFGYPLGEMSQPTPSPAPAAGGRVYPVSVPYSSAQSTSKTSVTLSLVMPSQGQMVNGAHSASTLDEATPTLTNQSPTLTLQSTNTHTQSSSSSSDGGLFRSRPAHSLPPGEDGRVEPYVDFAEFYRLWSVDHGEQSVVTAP
- test.details: Inhibition of recombinant human full-length His-tagged TAK1-TAB1 fusion protein (437 to 504 residues) expressed in baculovirus expression system using fluorescein-MAP2K1 as substrate preincubated for 30 mins followed by substrate addition and measured after 60 mins in presence of ATP by lanthascreen TR-FRET assay
observation.type: IC50 (nM)

Worked examples follow.
molecule	target.under.test	IC50, nM
CNC(=O)CN(Cc1ccccc1OC(F)F)C(=O)c1c[nH]c(C(=O)N2Cc3ccc(C(N)=O)cc3C2)n1	TAK1/TAB1 (Homo sapiens)	5
CNC(=O)CN(Cc1ccccc1OC(F)F)C(=O)c1c[nH]c(C(=O)N2CCCCCC2)n1	TAK1/TAB1 (Homo sapiens)	2900
CNC(=O)CN(Cc1ccccc1OC(F)F)C(=O)c1cc(C(=O)N2CCCC2)[nH]n1	TAK1/TAB1 (Homo sapiens)	59000
CNC(=O)CN(Cc1ccccc1OC(F)F)C(=O)c1c[nH]c(C(=O)N2CCCCC2)n1	TAK1/TAB1 (Homo sapiens)	1200
CNC(=O)CN(Cc1ccccc1OC(F)F)C(=O)c1c[nH]c(C(=O)N2CCC(c3ccccc3)C2)n1 (stereo not given)	TAK1/TAB1 (Homo sapiens)	2300

[a] CNC(=O)CN(Cc1ccccc1OC(F)F)C(=O)c1c[nH]c(C(=O)N2CCCC2C)n1 (stereo not given)
[b] CCOc1ccccc1CN(CC(=O)NC)C(=O)c1c[nH]c(C(=O)N2CCCC2)c1
INPUT: Short answer wanted: higher IC50, a or b ? Refer to your chosen item by its label in the answer.
OUTPUT: a
(a: 5700 nM, b: 2600 nM)

----------
- test.details: Aqueous solubility of compound in pH 7.4 PBS buffer measured after 24 hrs by HPLC-UV analysis
- Assay type: physicochemical
observation.type: solubility at 24 h (µM)

[I] CNC(=O)[C@@H](C)N(Cc1ccccc1OC(F)F)C(=O)c1c[nH]c(C(=O)N2Cc3ccc(C(N)=O)cc3C2)n1
[II] CNC(=O)CN(Cc1ccccc1OC(F)F)C(=O)c1c[nH]c(C(=O)N2CCCC2)n1
INPUT: Two entries are listed, I and II . Which one carries the higher solubility at 24 h? Respond with the label that goes with your answer.
OUTPUT: II

----------
- target.under.test: TAK1/TAB1 (Homo sapiens)
- test.details: Inhibition of recombinant human full-length His-tagged TAK1-TAB1 fusion protein (437 to 504 residues) expressed in baculovirus expression system using fluorescein-MAP2K1 as substrate preincubated for 30 mins followed by substrate addition and measured after 60 mins in presence of ATP by lanthascreen TR-FRET assay
observation.type: IC50 (µM)

molecular.string	target.under.test	unit.name	IC50
CNC(=O)CN(Cc1ccccc1OC(F)F)C(=O)c1c[nH]c(C(=O)N2CCCC2)c1	TAK1/TAB1 (Homo sapiens)	µM	1.3

[P] CNC(=O)CN(Cc1ccccc1OC(F)F)C(=O)c1c[nH]c(C(=O)N(C)C)c1
[Q] CN(Cc1ccccc1OC(F)F)C(=O)c1c[nH]c(C(=O)N2CCCC2)c1
INPUT: Would you let me know which has the greater IC50 value, P or Q ? Answer with the label corresponding to your selection.
OUTPUT: P
(P: 26 µM, Q: 3.5 µM)

----------
- target.under.test: TAK1/TAB1 (Homo sapiens)
- test.details: Inhibition of recombinant human full-length His-tagged TAK1-TAB1 fusion protein (437 to 504 residues) expressed in baculovirus expression system using fluorescein-MAP2K1 as substrate preincubated for 30 mins followed by substrate addition and measured after 60 mins in presence of ATP by lanthascreen TR-FRET assay
observation.type: IC50 (nM)

# example entries with known answers
compound	unit.name	IC50
CNC(=O)CN(Cc1ccccc1OC(F)F)C(=O)c1c[nH]c(C(=O)N2CCC2)n1	nM	2600
CNC(=O)CN(Cc1ccccc1OC(F)F)C(=O)c1c[nH]c(C(=O)N2Cc3ccccc3C2)n1	nM	300
CNC(=O)CN(Cc1cccc2c1OCCCO2)C(=O)c1c[nH]c(C(=O)N2CCCC2)c1	nM	3400
NC(=O)CN(Cc1ccccc1OC(F)F)C(=O)c1c[nH]c(C(=O)N2CCCC2)c1	nM	900
CC(C)NC(=O)CN(Cc1ccccc1OC(F)F)C(=O)c1c[nH]c(C(=O)N2CCCC2)c1	nM	1700
CNC(=O)[C@@H](C)N(Cc1ccccc1OC(F)F)C(=O)c1c[nH]c(C(=O)N2Cc3ccc(C(N)=O)cc3C2)n1	nM	2
CNC(=O)CN(Cc1ccccc1OC(F)F)C(=O)c1c[nH]c(C(=O)N2CCC(F)C2)n1 (stereo not drawn)	nM	1200
CNC(=O)CN(Cc1ccccc1OC(F)F)C(=O)c1c[nH]c(C(=O)N2CCCCC2)c1	nM	1800
CNC(=O)CN(Cc1ccccc1OC(F)F)C(=O)c1c[nH]c(C(=O)N2CCC(C)C2)n1 (stereo not drawn)	nM	900

[I] CNC(=O)[C@@H](C)N(Cc1ccccc1OC(F)F)C(=O)c1c[nH]c(C(=O)N2CCCC2)n1
[II] CNC(=O)C(C)N(Cc1ccccc1OC(F)F)C(=O)c1c[nH]c(C(=O)N2CCCC2)n1 (stereo not drawn)
INPUT: Which of the two items, I and II , has the greater recorded IC50? Use the label to indicate which entry you chose.
OUTPUT: II
(II: 500 nM, I: 300 nM)

----------
- test.details: Apparent permeability across basolateral to apical side in human Caco-2 cells at 2 uM after 2 hrs by LC/MS-MS analysis
- Format: ADME, cell-based
observation.type: Papp B→A at 2 h, 2 µM (×10⁻⁶ cm/s)

[A] CNC(=O)[C@@H](C)N(Cc1ccccc1OC(F)F)C(=O)c1c[nH]c(C(=O)N2Cc3ccc(C(N)=O)cc3C2)n1
[B] CNC(=O)CN(Cc1ccccc1OC(F)F)C(=O)c1c[nH]c(C(=O)N2CCCC2)n1
INPUT: Which shows the larger Papp B→A at 2 h, 2 µM value: A or B ? Returns: label corresponding to the selected item.
OUTPUT: B
(B: 20 ×10⁻⁶ cm/s, A: 6 ×10⁻⁶ cm/s)

----------
- test.details: Apparent permeability across apical to basolateral side in human Caco-2 cells at 2 uM after 2 hrs by LC/MS-MS analysis
- Type: ADME, cell-based
observation.type: Papp A→B at 2 h, 2 µM (×10⁻⁶ cm/s)

[a] CNC(=O)CN(Cc1ccccc1OC(F)F)C(=O)c1c[nH]c(C(=O)N2CCCC2)n1
[b] CNC(=O)[C@@H](C)N(Cc1ccccc1OC(F)F)C(=O)c1c[nH]c(C(=O)N2Cc3ccc(C(N)=O)cc3C2)n1
INPUT: Hi team, can someone confirm which has the larger Papp A→B at 2 h, 2 µM: a or b ? Thanks. Response format: the label of the selected entry.
OUTPUT: a

----------
- test.details: Efflux ratio of apparent permeability across basolateral to apical side over apical to basolateral side in human Caco-2 cells at 2 uM after 2 hrs by LC/MS-MS analysis
- Assay type: ADME, cell-based
observation.type: efflux ratio at 2 h, 2 µM
I only need the number, thanks.

INPUT: Looking for the measured efflux ratio at 2 h, 2 µM of CNC(=O)CN(Cc1ccccc1OC(F)F)C(=O)c1c[nH]c(C(=O)N2CCCC2)n1 , can you help?
OUTPUT: 20

----------
- test.details: Half life in human liver S9 fraction at 1 uM measured up to 60 mins in presence of NADPH by LC-MS analysis
- Type: ADME, subcellular
observation.type: half-life at 1 µM (min)
Just the number please, in min, no unit attached.

INPUT: Recorded half-life at 1 µM of CNC(=O)[C@@H](C)N(Cc1ccccc1OC(F)F)C(=O)c1c[nH]c(C(=O)N2Cc3ccc(C(N)=O)cc3C2)n1 , please.
OUTPUT: 24

----------
- test.details: Half life in CD-1 mouse liver S9 fraction at 1 uM measured up to 60 mins in presence of NADPH by LC-MS analysis
- Format: ADME, subcellular
observation.type: half-life at 1 µM (min)
// return numeric value only (unit: min, not printed)

INPUT: half-life at 1 µM for CNC(=O)[C@@H](C)N(Cc1ccccc1OC(F)F)C(=O)c1c[nH]c(C(=O)N2Cc3ccc(C(N)=O)cc3C2)n1 ?
OUTPUT: 29

----------
- target.under.test: Mitogen-activated protein kinase kinase kinase 7 (Homo sapiens, UniProt O43318)
- Sequence (O43318 whole entry): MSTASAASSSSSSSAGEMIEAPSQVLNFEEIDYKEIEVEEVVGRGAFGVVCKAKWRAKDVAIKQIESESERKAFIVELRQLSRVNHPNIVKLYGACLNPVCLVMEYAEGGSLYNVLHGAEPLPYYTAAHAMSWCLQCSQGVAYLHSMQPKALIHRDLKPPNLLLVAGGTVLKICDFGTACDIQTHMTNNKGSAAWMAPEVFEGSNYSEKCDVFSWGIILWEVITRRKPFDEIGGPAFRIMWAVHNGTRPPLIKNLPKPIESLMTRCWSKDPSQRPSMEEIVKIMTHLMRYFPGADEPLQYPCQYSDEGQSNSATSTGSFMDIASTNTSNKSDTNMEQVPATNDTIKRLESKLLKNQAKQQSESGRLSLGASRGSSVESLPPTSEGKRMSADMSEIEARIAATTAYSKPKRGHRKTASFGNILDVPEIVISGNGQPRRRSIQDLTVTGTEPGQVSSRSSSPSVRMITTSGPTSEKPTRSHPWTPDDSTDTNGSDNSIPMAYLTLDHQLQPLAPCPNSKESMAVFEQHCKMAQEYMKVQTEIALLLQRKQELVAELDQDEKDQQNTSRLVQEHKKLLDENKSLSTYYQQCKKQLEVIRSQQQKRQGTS
- test.details: Binding affinity to wild-type human partial length TAK1 (M1 to Q303 residues) expressed in mammalian expression system by Kinomescan method
observation.type: Kd (nM)
# number only, unit nM dropped from output

INPUT: Query Kd on Mitogen-activated protein kinase kinase kinase 7 (Homo sapiens, UniProt O43318) for CNC(=O)CN(Cc1ccccc1OC(F)F)C(=O)c1c[nH]c(C(=O)N2CCCC2)n1
OUTPUT: 55
